Hello, the source for this data is patent US20260191981A1, in case you need it.

Biological target: T1, biotinylated cTfR1 (Acro Bio p/n TFR-C8249) (cynomolgus monkey, UniProt H9EXL1 89-760 (rhesus entry), biotinylated; site not stated)
T1 construct: Bought reagent of the BLI assay
T1 sequence (chain, as listed by the source): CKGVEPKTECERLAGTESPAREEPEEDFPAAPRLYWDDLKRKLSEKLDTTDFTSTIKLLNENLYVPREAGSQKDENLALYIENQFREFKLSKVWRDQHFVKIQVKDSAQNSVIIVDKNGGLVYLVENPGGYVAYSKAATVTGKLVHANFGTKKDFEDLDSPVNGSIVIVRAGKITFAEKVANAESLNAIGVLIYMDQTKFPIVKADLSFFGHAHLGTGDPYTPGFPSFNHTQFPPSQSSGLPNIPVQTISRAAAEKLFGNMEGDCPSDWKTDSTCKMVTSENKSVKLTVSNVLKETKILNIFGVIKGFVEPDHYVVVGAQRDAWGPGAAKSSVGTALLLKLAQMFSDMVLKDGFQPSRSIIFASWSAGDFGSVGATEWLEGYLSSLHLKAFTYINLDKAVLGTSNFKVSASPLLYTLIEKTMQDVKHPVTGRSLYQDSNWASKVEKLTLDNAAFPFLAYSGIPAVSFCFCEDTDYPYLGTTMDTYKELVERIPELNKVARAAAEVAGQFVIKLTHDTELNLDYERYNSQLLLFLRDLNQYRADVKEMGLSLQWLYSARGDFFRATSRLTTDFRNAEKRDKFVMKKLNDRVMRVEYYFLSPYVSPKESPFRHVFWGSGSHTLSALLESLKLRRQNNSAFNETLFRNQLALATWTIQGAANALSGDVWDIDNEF
Assay: BLI, Octet RH16, biotinylated TfR1 on streptavidin sensor; Fab-siRNA conjugate
Measured pKd of individual entries
Please note pKd is a logarithmic value: minus log10 of concentration in mol/L. Answer with that number alone.

The following binders have reported results that may help.
>>> observed_result("Fab0067-siRNA conjugate (Fab, V domains shown, siRNA-linker on a reduced cysteine; chain and residue not stated, also called Fab0067 (BLI conjugate columns)) VH: EVQLVESGGGLVQPGGSLRLSCATSGYTFTSYWVHWVRQAPGKGLEWVAEINPTNGRTNYIEKFKSRITLSVDKSKSTVYLQMNSLRAEDTAVYYCARGTRAYHYWGQGTLVTVSS VL: DIQLTQSPSSLSASVGDRVTITCRASDNLYRNLAWYQQKPGKAPKLLIYDATKLASGVPSRFSGSGSGTDYTLTISSLQPEDFATYYCQHFWGTPLTFGQGTKVEIKR")
8.30
>>> observed_result("Fab0072-siRNA conjugate (Fab, V domains shown, siRNA-linker on a reduced cysteine; chain and residue not stated, also called Fab0072 (BLI conjugate columns)) VH: EVQLVESGGGLVQPGGSLRLSCATSGYTFNSYWMHWVRQAPGKGLEWVAEINPTNGRFNYIEKFKSRITLSVDKSKSTVYLQMNSLRAEDTAVYYCARGTRAYHYWGQGTLVTVSS VL: DIQLTQSPSSLSASVGDRVTITCRASDNLYRNLAWYQQKPGKAPKLLIYDARNLASGVPSRFSGSGSGTDYTLTISSLQPEDFATYYCQHFWGTPLTFGQGTKVEIKR")
7.97

Please find the next binder below.
Looking up Fab0070-siRNA conjugate (Fab, V domains shown, siRNA-linker on a reduced cysteine; chain and residue not stated, also called Fab0070 (BLI conjugate columns)) VH: EVQLVESGGGLVQPGGSLRLSCATSGFTFTSYWMHWVRQAPGKGLEWVAEINPTNGRTNYIEKFKSRITLSVDKSKSTVYLQMNSLRAEDTAVYYCARGTRAYHYWGQGTLVTVSS VL: DIQLTQSPSSLSASVGDRVTITCRASDKLYSNLAWYQQKPGKAPKLLIYDATLLASGVPSRFSGSGSGTDYTLTISSLQPEDFATYYCQHFWGTPLTFGQGTKVEIKR , I see its pKd listed as 7.77
